Test system: 233499-124-R-J3-PDC spheroids with HUVEC/MSC, viability;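 further: spheroids exposed to agents for seven days before readout; percent viability relative to DMSO vehicle control taken as 100%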
Experiment: Anticancer human tumor 233499-124-R-J3-PDC patient-derived colon adenocarcinoma cell line growth inhibition [PI3K]
Conditions: compound 1 µM; stronger effect = lower value
Known viability, T/C of a selection of compounds

Solved cases below.
[
  {
    "COMPOUND": "CC(Cn1ccc(-c2ccc(C#N)c(Cl)c2)n1)NC(=O)c1cc(C(C)O)[nH]n1 (stereo not given)",
    "TARGET DESC": "233499-124-R-J3-PDC spheroids with HUVEC/MSC, viability",
    "READING": "98.2% [middle of 4 runs]"
  },
  {
    "COMPOUND": "CCN1CCN(Cc2ccc(Nc3ncc(F)c(-c4cc(F)c5nc(C)n(C(C)C)c5c4)n3)nc2)CC1",
    "TARGET DESC": "233499-124-R-J3-PDC spheroids with HUVEC/MSC, viability",
    "READING": "38.2% [middle of 4 runs]"
  },
  {
    "COMPOUND": "CCCS(=O)(=O)Nc1ccc(F)c(C(=O)c2c[nH]c3ncc(-c4ccc(Cl)cc4)cc23)c1F",
    "TARGET DESC": "233499-124-R-J3-PDC spheroids with HUVEC/MSC, viability",
    "READING": "100% [middle of 4 runs]"
  },
  {
    "COMPOUND": "COc1c(OCCCN2CCOCC2)ccc2c3n(c(=NC(=O)c4cnc(N)nc4)nc12)CCN3",
    "TARGET DESC": "233499-124-R-J3-PDC spheroids with HUVEC/MSC, viability",
    "READING": "11.8% [middle of 8 runs]"
  }
]

Return viability, T/C for the following compound: Cn1ncc(Cl)c1-c1cc(C(=O)NC(CN)Cc2cccc(F)c2)sc1Cl (stereo not given)
89.6% [middle of 4 runs]
